The listing below reports Ki for molecules tested on UniProt:P00915.
Sequence (P00915 whole entry): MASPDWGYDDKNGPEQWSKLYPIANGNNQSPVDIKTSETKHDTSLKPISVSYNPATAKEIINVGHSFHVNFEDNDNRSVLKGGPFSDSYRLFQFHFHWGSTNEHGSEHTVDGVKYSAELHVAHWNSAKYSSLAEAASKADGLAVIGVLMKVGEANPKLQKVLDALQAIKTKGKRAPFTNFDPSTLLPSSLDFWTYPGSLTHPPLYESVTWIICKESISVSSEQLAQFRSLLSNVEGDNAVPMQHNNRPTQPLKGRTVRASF

For the molecule Cc1cc(NS(=O)(=O)c2ccc(N3C(=O)/C(=C/c4coc5ccccc5c4=O)N=C3c3ccccc3)cc2)no1 , what Ki is on record? > 10 µM

Request: CCOC1Oc2ccccc2C(=O)/C1=C/Nc1ccc(S(=O)(=O)Nc2nc(C)cc(C)n2)cc1 (stereo not given) > 10 µM

Request: O=C1N=C(Nc2ccc(S(=O)(=O)Nc3ccccn3)cc2)S/C1=C/c1coc2ccccc2c1=O > 10 µM

Request: NS(=O)(=O)c1ccc(NC2=NC(=O)/C(=C\c3coc4ccccc4c3=O)S2)cc1 0.399 µM

Request: Cc1cc(NS(=O)(=O)c2ccc(NCc3coc4ccccc4c3=O)cc2)no1 > 10 µM

Values from ChEMBL document CHEMBL3414524
